# test_system: GlcNAc(b1-2)Man(a1-3)[GlcNAc(b1-4)][GlcNAc(b1-2)Man(a1-6)]Man(b1-4)GlcNAc(b1-4)[Fuc(a1-6)]GlcNAc
# assay_method_text: glycan array binding signal (z-score within array); higher = stronger binding
# conditions_used: glycan notation: IUPAC condensed, linker removed
The sample as a whole holds a higher share of the strongest signals than the screen did.
glycan array binding signal (z-score) reference
When you answer, write just the number.

>  <binder>
Gal 4 (Mus musculus), P56470 (protein) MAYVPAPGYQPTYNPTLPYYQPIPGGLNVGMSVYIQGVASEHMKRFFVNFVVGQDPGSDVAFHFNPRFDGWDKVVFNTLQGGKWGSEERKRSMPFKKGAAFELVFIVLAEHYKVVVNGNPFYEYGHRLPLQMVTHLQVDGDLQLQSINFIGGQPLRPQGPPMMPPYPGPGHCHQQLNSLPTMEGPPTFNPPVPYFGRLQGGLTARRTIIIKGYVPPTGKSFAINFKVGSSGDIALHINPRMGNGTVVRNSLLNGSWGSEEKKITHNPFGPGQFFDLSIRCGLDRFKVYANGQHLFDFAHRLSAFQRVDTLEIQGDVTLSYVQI

>  <glycan array binding signal (z-score)>
-0.278

$$$$

Shifting focus to the binder that follows.
q: Bench note: what glycan array binding signal (z-score) did Threefoil (Haloarcula marismortui) (protein) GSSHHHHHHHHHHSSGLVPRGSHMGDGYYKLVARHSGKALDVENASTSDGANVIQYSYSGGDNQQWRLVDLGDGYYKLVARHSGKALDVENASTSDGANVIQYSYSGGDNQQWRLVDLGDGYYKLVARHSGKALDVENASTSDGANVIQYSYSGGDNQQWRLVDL show?
a: -0.223
